assay.overview: clinical
stated.conditions: male, human, in vivo, po, 250 mg, AUCinf
Source text: Cefaclor bioequivalence results in 24 healthy Korean men obtained from a previous study were reused for the analysis of cefaclor pharmacokinetics according to PEPT1 genetic polymorphisms in this study. […] Information on the high-performance liquid chromatography-ultraviolet (HPLC-UV) method used to quantify cefaclor in plasma samples is briefly presented in Supplementary Information S3. […]
experimental.endpoint: AUC(0-inf) (ng·h/mL)
Return type: number; implicit unit ng·h/mL.

Req: GET /values?readout=AUC(0-inf)&item= N[C@@H](C(=O)N[C@@H]1C(=O)N2C(C(=O)O)=C(Cl)CS[C@H]12)c1ccccc1
Resp: 7740

* * *

assay.overview: clinical
stated.conditions: male, human, in vivo, po, 250 mg, T1/2 (elimination half-life)
experimental.endpoint: half-life (min)
Unit min implied. Number only.

Req: Requested field: half-life. Item: N[C@@H](C(=O)N[C@@H]1C(=O)N2C(C(=O)O)=C(Cl)CS[C@H]12)c1ccccc1 [cefaclor]
Resp: 36

* * *

assay.overview: clinical
stated.conditions: male, human, in vivo, po, 250 mg, Cmax
experimental.endpoint: Cmax (ng/mL)
Response body: numeric value in ng/mL, unit text excluded.

Req: # Cmax lookup, item N[C@@H](C(=O)N[C@@H]1C(=O)N2C(C(=O)O)=C(Cl)CS[C@H]12)c1ccccc1 [cefaclor]
Resp: 6510
